Target: OCT1 (Homo sapiens)
Sequence (O15245 1-554): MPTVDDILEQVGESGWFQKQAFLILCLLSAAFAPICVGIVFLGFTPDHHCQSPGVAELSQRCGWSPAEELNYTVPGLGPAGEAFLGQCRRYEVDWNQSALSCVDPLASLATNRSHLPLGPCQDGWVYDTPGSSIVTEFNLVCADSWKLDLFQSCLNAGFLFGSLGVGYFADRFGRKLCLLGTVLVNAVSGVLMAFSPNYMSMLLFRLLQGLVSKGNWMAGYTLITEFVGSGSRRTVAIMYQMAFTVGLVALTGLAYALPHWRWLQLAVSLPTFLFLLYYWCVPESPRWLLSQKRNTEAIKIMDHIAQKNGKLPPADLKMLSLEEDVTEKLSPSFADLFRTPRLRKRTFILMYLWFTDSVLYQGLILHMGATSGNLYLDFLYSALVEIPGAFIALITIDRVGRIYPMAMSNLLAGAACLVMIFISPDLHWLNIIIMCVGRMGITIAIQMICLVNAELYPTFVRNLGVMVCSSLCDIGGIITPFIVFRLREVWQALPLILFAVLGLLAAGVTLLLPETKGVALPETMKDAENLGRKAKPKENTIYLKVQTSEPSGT
readout.label: IC50

Q) Please give the measured IC50 for this compound: `O=C(O)C[C@H]1CCc2c1[nH]c1ccc(OCc3ccc(C4CCCC4)c(C(F)(F)F)c3)cc21`
A) > 10 µM

###

Molecular target: MATE1 (Homo sapiens)
Sequence (Q96FL8 1-570): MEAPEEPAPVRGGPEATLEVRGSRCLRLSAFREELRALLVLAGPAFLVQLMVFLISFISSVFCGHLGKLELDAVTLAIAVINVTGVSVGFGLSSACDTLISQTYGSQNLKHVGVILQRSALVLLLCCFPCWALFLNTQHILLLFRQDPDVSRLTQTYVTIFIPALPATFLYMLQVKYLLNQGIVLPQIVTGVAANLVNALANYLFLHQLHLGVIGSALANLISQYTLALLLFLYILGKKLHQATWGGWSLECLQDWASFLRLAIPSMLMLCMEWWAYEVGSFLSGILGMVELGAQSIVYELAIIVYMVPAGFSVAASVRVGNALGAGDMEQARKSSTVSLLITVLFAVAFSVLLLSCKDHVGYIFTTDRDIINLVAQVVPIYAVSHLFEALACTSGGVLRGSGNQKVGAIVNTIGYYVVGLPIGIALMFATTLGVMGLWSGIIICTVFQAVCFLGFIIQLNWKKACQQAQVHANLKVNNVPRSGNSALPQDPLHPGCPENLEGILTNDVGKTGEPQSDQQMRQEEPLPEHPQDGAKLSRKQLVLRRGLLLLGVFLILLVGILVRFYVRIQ
readout.label: IC50

Q) Please give the measured IC50 for this compound: O=C(O)C[C@H]1CCc2c1[nH]c1ccc(OCc3ccc(C4CCCC4)c(C(F)(F)F)c3)cc21 [Compound 1]
A) > 10 µM

###

Biological target: BCRP (Homo sapiens)
Sequence (Q9UNQ0 whole entry): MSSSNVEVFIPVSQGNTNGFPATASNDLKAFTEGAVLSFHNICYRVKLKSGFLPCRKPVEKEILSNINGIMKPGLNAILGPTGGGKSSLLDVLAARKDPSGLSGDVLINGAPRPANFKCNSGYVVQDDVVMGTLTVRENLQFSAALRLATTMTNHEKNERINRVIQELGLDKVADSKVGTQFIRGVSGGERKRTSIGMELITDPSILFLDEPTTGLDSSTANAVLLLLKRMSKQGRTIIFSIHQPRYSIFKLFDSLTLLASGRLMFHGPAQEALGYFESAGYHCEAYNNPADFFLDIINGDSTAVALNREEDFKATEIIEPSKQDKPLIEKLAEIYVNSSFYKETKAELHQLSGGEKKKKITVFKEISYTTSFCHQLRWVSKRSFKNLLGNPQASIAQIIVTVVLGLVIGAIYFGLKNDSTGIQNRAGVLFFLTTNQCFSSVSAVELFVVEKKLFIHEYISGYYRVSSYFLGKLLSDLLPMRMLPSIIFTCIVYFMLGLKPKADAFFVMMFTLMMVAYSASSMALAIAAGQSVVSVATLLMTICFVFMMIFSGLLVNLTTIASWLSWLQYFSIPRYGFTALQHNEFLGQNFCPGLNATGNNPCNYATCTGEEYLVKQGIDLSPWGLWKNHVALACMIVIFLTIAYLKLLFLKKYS
Assay: Transporter inhibition, MDCKII-BCRP cells
Settings: MDCKII-BCRP cells, prazosin (1 μM), 0.03 to 30 μM
readout.label: pIC50
FYI, pIC50 means -log10 of a concentration in mol per litre.

Q) Please give the measured pIC50 for this compound: O=C(O)C[C@H]1CCc2c1[nH]c1ccc(OCc3ccc(C4CCCC4)c(C(F)(F)F)c3)cc21 [Compound 1]
A) 4.45
